experiment: Lipophilicity, log K of the compound in methanol-water mixture by HPLC analysis; assay type: physicochemical
MEASURED_QUANTITY: log K
Could you respond with only the numeric value?

// known answers, use as guide
>  <SMILES_STRUCTURE>
N#Cc1cnc(C(N)=O)c(NCc2cccc([N+](=O)[O-])c2)n1

>  <MEASURED_QUANTITY>
log K

>  <NUMERIC_READOUT>
0.1331

$$$$
>  <SMILES_STRUCTURE>
N#Cc1cnc(C#N)c(NCc2ccccc2)n1

>  <MEASURED_QUANTITY>
log K

>  <NUMERIC_READOUT>
0.335

$$$$
>  <SMILES_STRUCTURE>
N#Cc1cnc(C#N)c(NCc2cccc(Cl)c2)n1

>  <MEASURED_QUANTITY>
log K

>  <NUMERIC_READOUT>
0.5456

$$$$

Exercise: Report log K for N#Cc1cnc(C(N)=O)c(NCc2ccc(Cl)c(Cl)c2)n1
Solution: 0.7353

Exercise: Note down log K recorded for Cc1ccc(CNc2nc(C#N)cnc2C#N)cc1
Solution: 0.5598

Exercise: Quick one: give measured log K for N#Cc1cnc(C#N)c(NCc2cccc(C(F)(F)F)c2)n1
Solution: 0.5615

====

Recorded log10 of MIC values for a group of compounds are listed next.
tested on: Mycobacterium tuberculosis; test: Antimycobacterial activity against Mycobacterium tuberculosis H37Rv CNCTC My 331/88 after 10 to 14 days by microdilution panel method; type: functional
Parameter value (number): base-10 log of MIC in µM.

>  <COMPOUND>
Cc1ccc(CNc2nc(C#N)cnc2C#N)cc1

>  <log10 of MIC>
1.40

$$$$
>  <COMPOUND>
NNC(=O)c1ccncc1

>  <log10 of MIC>
1.04

$$$$
>  <COMPOUND>
N#Cc1cnc(C#N)c(NCc2ccc(N)cc2)n1

>  <log10 of MIC>
2.00

$$$$
>  <COMPOUND>
N#Cc1cnc(C(N)=O)c(NCc2cccc([N+](=O)[O-])c2)n1

>  <log10 of MIC>
1.92

$$$$
>  <COMPOUND>
N#Cc1cnc(C#N)c(NCc2ccccc2)n1

>  <log10 of MIC>
1.72

$$$$
>  <COMPOUND>
N#Cc1cnc(C#N)c(NCc2ccc(Cl)cc2)n1

>  <log10 of MIC>
1.97

$$$$
>  <COMPOUND>
N#Cc1cnc(C#N)c(NCc2cccc(Cl)c2)n1

>  <log10 of MIC>
1.66

$$$$
>  <COMPOUND>
COc1ccc(CNc2nc(C#N)cnc2C#N)cc1

>  <log10 of MIC>
2.27

$$$$
>  <COMPOUND>
Cc1ccc(CNc2nc(C#N)cnc2C(N)=O)cc1

>  <log10 of MIC>
1.67

$$$$
>  <COMPOUND>
N#Cc1cnc(C(N)=O)c(NCc2ccc(N)cc2)n1

>  <log10 of MIC>
1.67

$$$$

Exercise: Please look at this compound and report its log10 of MIC: NC(=O)c1cnccn1 [PYRAZINAMIDE]
Solution: 1.71

Exercise: Provide log10 of MIC value for the following compound: N#Cc1cnc(C(N)=O)c(NCc2cccc(C(F)(F)F)c2)n1
Solution: 1.89

====

assay: Selectivity index, ratio of IC50 for human HepG2 cells to MIC for Mycobacterium tuberculosis H37Rv CNCTC My 331/88; assay type: functional
Rule: measured Selectivity Index below 3 gets YES; anything equal to or greater than 3 gets NO.

Use these answered entries as a reference point.
>  <COMPOUND>
COc1ccc(CNc2nc(C#N)cnc2C#N)cc1

>  <CLASSIFICATION>
YES

$$$$
>  <COMPOUND>
N#Cc1cnc(C(N)=O)c(NCc2cccc(C(F)(F)F)c2)n1

>  <CLASSIFICATION>
YES

$$$$
>  <COMPOUND>
NC(=O)c1cnccn1 [PYRAZINAMIDE]

>  <CLASSIFICATION>
NO

$$$$
>  <COMPOUND>
N#Cc1cnc(C#N)c(NCc2cccc(Cl)c2)n1

>  <CLASSIFICATION>
YES

$$$$
>  <COMPOUND>
N#Cc1cnc(C#N)c(NCc2ccc(Cl)cc2)n1

>  <CLASSIFICATION>
YES

$$$$

Exercise: Dear reviewer, please state whether Cc1ccc(CNc2nc(C#N)cnc2C(N)=O)cc1 has Selectivity Index strictly beneath 3.
Solution: YES

====

assay: Lipophilicity, log K of the compound in methanol-water mixture by HPLC analysis; format: physicochemical
Note to self: use yes only for log K readings below 0.3; a reading exactly at 0.3 still gets no.

Some entries whose results are on file:
>  <SMILES_STRUCTURE>
N#Cc1cnc(C#N)c(NCc2ccc(Cl)cc2)n1

>  <CLASSIFICATION>
no

$$$$
>  <SMILES_STRUCTURE>
COc1ccc(CNc2nc(C#N)cnc2C#N)cc1

>  <CLASSIFICATION>
no

$$$$
>  <SMILES_STRUCTURE>
N#Cc1cnc(C(N)=O)c(NCc2ccc(N)cc2)n1

>  <CLASSIFICATION>
yes

$$$$
>  <SMILES_STRUCTURE>
N#Cc1cnc(C(N)=O)c(NCc2ccccc2)n1

>  <CLASSIFICATION>
no

$$$$
>  <SMILES_STRUCTURE>
N#Cc1cnc(C#N)c(NCc2ccc(Cl)c(Cl)c2)n1

>  <CLASSIFICATION>
no

$$$$

Exercise: For this compound, is log K lower than 0.3? N#Cc1cnc(C(N)=O)c(NCc2ccc(Cl)cc2)n1
Solution: no

Exercise: Lab note: record K threshold 0.3. Does this compound come in strictly under it? N#Cc1cnc(C#N)c(NCc2cccc([N+](=O)[O-])c2)n1
Solution: yes

Exercise: Criterion: log K strictly below 0.3. Is it met by N#Cc1cnc(C(N)=O)c(NCc2cccc(Cl)c2)n1 ?
Solution: no

Exercise: Lab log: compare recorded log K with 0.3; is it strictly lower for Cc1ccccc1CNc1nc(C#N)cnc1C#N ?
Solution: no

====

assay: Selectivity index, ratio of IC50 for human HepG2 cells to MIC for Mycobacterium tuberculosis H37Rv CNCTC My 331/88; type: functional
Each item that follows carries a reported Selectivity Index.
Answer with the value's number alone.

Take a look at these entries with their results.
>  <SMILES_STRUCTURE>
N#Cc1cnc(C(N)=O)c(NCc2cccc([N+](=O)[O-])c2)n1

>  <Selectivity Index>
5.4

$$$$
>  <SMILES_STRUCTURE>
Cc1ccc(CNc2nc(C#N)cnc2C#N)cc1

>  <Selectivity Index>
2.8

$$$$
>  <SMILES_STRUCTURE>
N#Cc1cnc(C#N)c(NCc2ccccc2)n1

>  <Selectivity Index>
1.1

$$$$

Here's the next entry for you.
Exercise: Retrieve Selectivity Index measured for N#Cc1cnc(C#N)c(NCc2ccc(N)cc2)n1 and print it.
Solution: 5.5

====

Collected log K values appear next to each entry.
experiment: Lipophilicity, log K of the compound in methanol-water mixture by HPLC analysis; format: physicochemical
Please respond with just the number, no unit label.

# example entries with known answers
>  <SMILES_STRUCTURE>
COc1ccc(CNc2nc(C#N)cnc2C(N)=O)cc1

>  <NUMERIC_READOUT>
0.3074

$$$$
>  <SMILES_STRUCTURE>
N#Cc1cnc(C#N)c(NCc2ccc(N)cc2)n1

>  <NUMERIC_READOUT>
-0.1621

$$$$
>  <SMILES_STRUCTURE>
Cc1ccc(CNc2nc(C#N)cnc2C(N)=O)cc1

>  <NUMERIC_READOUT>
0.5533

$$$$

Okay, next one:
Exercise: Kindly indicate its recorded log K. Item: N#Cc1cnc(C(N)=O)c(NCc2cccc(C(F)(F)F)c2)n1
Solution: 0.5104
